target: Aβ42 (Homo sapiens, UniProt P05067); test: Th-T (thioflavin-T) assay of Aβ42 aggregation; type: biochemical; conditions: concentration 50, unit not given; time-course reading M145
Sequence (P05067 672-713): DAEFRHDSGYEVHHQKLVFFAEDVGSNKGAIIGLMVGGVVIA
Each entry gets criterion not met if its Th-T fluorescence of Aβ42 with compound, mean of three wells (Fig. 7a source data) stays under 0.5, and criterion met if its Th-T fluorescence of Aβ42 with compound, mean of three wells (Fig. 7a source data) is 0.5 or above.

Task: Test whether the compound `C=C1CC[C@@H]2[C@](C)(CC[C@H]3O[C@H](C=C(C)C)C[C@@]23C)[C@@H]1Cc1c(OC)oc(CO)c(C)c1=O` records Th-T fluorescence of Aβ42 with compound, mean of three wells (Fig. 7a source data) of 0.5 or higher.
Result: criterion met

Task: Test whether the compound C=C1CCC2C(C)(CCC=C(C)C)C(O)CCC2(C)C1Cc1c(OC)oc(C)c(C(=O)OC)c1=O (centres unmarked) records Th-T fluorescence of Aβ42 with compound, mean of three wells (Fig. 7a source data) of 0.5 or higher.
Result: criterion met

Task: Test whether the compound C=C1CCC2C(C)(CCC=C(C)C)C(O)CCC2(C)C1Cc1c(OC)oc(CO)c(C(=O)OC)c1=O (centres unmarked) records Th-T fluorescence of Aβ42 with compound, mean of three wells (Fig. 7a source data) of 0.5 or higher.
Result: criterion not met

In the following, a different compound is considered.
Task: Test whether the compound C=C1CCC2C(C)(CCC=C(C)C)C(O)CCC2(C)C1Cc1c(OC)oc(CO)c(C)c1=O (centres unmarked) records Th-T fluorescence of Aβ42 with compound, mean of three wells (Fig. 7a source data) of 0.5 or higher.
Result: criterion met

###

Record form. Attribute: Th-T assay plate reading, mean of three wells (Supplementary Fig. 47). Fill in for each entry.
molecular target: Aβ42 (Homo sapiens, UniProt P05067); experiment: Th-T (thioflavin-T) assay of Aβ42 aggregation; assay type: biochemical; details: measurement M15; source data, Ab alone and No Ab as controls
Answers are plain numbers.

// `C=C1CC[C@H]2[C@]3(C)C[C@H](C=C(C)C)O[C@H]3CC[C@]2(C)[C@@H]1Cc1c(OC)oc(C)c(C)c1=O` : Th-T assay plate reading, mean of three wells (Supplementary Fig. 47) value = 3.396

Hi team, please reply with Th-T assay plate reading, mean of three wells (Supplementary Fig. 47) for each item in this list.
1. C=C1CCC2C(C)(CCC=C(C)C)C(O)CCC2(C)C1Cc1c(OC)oc(C)c(C)c1=O (stereo not drawn) [Compound 11]
2. C=C1CCC2C(C)(CCC=C(C)C)C(O)CCC2(C)C1Cc1c(OC)oc(C)c(C)c1=O (stereo not drawn) [Compound 15, viridoxin A hydrolysate]

Result:
2.27
1.9935

###

target: Aβ42 (Homo sapiens, UniProt P05067); test: Th-T (thioflavin-T) assay of Aβ42 aggregation; type: biochemical; conditions: measurement M5; source data, Ab alone and No Ab as controls
attribute.measured: Th-T assay plate reading, mean of three wells (Supplementary Fig. 47)
Numbers only.

// `C=C1CC[C@H]2[C@]3(C)C[C@H](C=C(C)C)O[C@H]3CC[C@]2(C)[C@@H]1Cc1c(OC)oc(C)c(C)c1=O` : Th-T assay plate reading, mean of three wells (Supplementary Fig. 47) value = 0.213

// `C=C1CC[C@H]2[C@]3(C)C[C@H](C=C(C)C)O[C@H]3CC[C@]2(C)[C@@H]1Cc1c(O)c(C)c(C)oc1=O` : Th-T assay plate reading, mean of three wells (Supplementary Fig. 47) value = 0.4514

// C=C1CCC2C(C)(CCC=C(C)C)C(O)CCC2(C)C1Cc1c(OC)oc(CO)c(C(=O)OC)c1=O (centres unmarked) : Th-T assay plate reading, mean of three wells (Supplementary Fig. 47) value = 0.2121

Hi team, please reply with Th-T assay plate reading, mean of three wells (Supplementary Fig. 47) for each item in this list.
1. C=C1CCC2C(C)(CCC=C(C)C)C(O)CCC2(C)C1Cc1c(OC)oc(CO)c(C)c1=O (centres unmarked)
2. C=C1CCC2C(C)(CCC=C(C)C)C(O)CCC2(C)C1Cc1c(O)c(C)c(C)oc1=O (centres unmarked) [Compound 4]
3. C=C1CC[C@@H]2[C@](C)(CC[C@H]3O[C@H](C=C(C)C)C[C@@]23C)[C@@H]1Cc1c(OC)oc(CO)c(C)c1=O
4. C=C1CCC2C(C)(CC(=O)C=C(C)C)C(O)CCC2(C)C1Cc1c(OC)oc(C)c(C)c1=O (centres unmarked)
5. C=C1CCC2C3(C)CC(C=C(C)C)OC3CCC2(C)C1Cc1c(OC)oc(C)c(C)c1=O (centres unmarked)
6. C=C1CCC2C(C)(CCC=C(C)C)C(O)CCC2(C)C1Cc1c(OC)oc(C)c(C)c1=O (centres unmarked) [Compound 11]

Result:
0.2891
0.4658
0.3754
0.4109
0.2368
0.2777

Hi team, please reply with Th-T assay plate reading, mean of three wells (Supplementary Fig. 47) for each item in this list.
1. C=C1CC[C@H]2[C@]3(C)C[C@@H](C=C(C)C)O[C@H]3CC[C@]2(C)[C@@H]1Cc1c(O)c(C)c(C)oc1=O
2. C=C1CCC2C(C)(CCC=C(C)C)C(O)CCC2(C)C1Cc1c(OC)oc(C)c(C)c1=O (centres unmarked) [Compound 15, viridoxin A hydrolysate]

Result:
1. 0.4309
2. 0.2149
